System: Escherichia coli
experiment.description: Growth inhibition of Escherichia coli BL21 after 20 hrs by spectrophotometric analysis
Assay type: functional, organism-based
condition: BL21, BL21, 20 h
pIC50: −log10 of the molar value.

- compound: "COc1ccc(C(N[C@@H](Cc2ccc(OCc3ccccc3)cc2)C(=O)O)c2nnnn2C2CCCCC2)cc1 (stereo partly specified)"
  pIC50: "> 4.00"

---

Test system: Escherichia coli
experiment.description: Inhibition of recombinant Escherichia coli M1 aminopeptidase using Leu-pNA as substrate preincubated for 15 mins followed by substrate addition
observable: inhibition

- compound: "COc1ccc(C(N[C@@H](Cc2ccc(OCc3ccccc3)cc2)C(=O)O)c2nnnn2C2CCCCC2)cc1 (stereo not given in full)"
  reported.result: "Dose-dependent effect"
- compound: "O=C(O)[C@H](Cc1c[nH]c2ccccc12)NC(c1ccco1)c1nnnn1C1CCCCC1 (stereo not given in full)"
  reported.result: "Dose-dependent effect"
- compound: "CC(C)[C@H](NCc1nnnn1Cc1ccccc1)C(=O)O"
  reported.result: "Dose-dependent effect"
- compound: "CC(C)[C@H](NCc1nnnn1CCCc1ccccc1)C(=O)O"
  reported.result: "Dose-dependent effect"
- compound: "COc1ccc(C(N[C@@H](Cc2c[nH]c3ccccc23)C(=O)O)c2nnnn2C2CCCCC2)cc1 (stereo not given in full)"
  reported.result: "Dose-dependent effect"

---

System: Escherichia coli
experiment.description: Inhibition of recombinant Escherichia coli M1 aminopeptidase using Leu-pNA as substrate preincubated for 15 mins followed by substrate addition
observable: inhibition

- molecule: "O=C(O)[C@H](Cc1ccccc1)NC(c1ccco1)c1nnnn1C1CCCCC1 (stereo not given in full)"
  reported.result: "Dose-dependent effect"
- molecule: "COc1ccc(C(N[C@H](C(=O)O)C(C)C)c2nnnn2CCCc2ccccc2)cc1 (stereo not given in full)"
  reported.result: "Dose-dependent effect"
- molecule: "O=C(O)[C@H](Cc1c[nH]c2ccccc12)NCc1nnnn1C1CCCCC1"
  reported.result: "Dose-dependent effect"
- molecule: "CC(C)[C@H](NC(c1cccnc1)c1nnnn1C1CCCCC1)C(=O)O (stereo not given in full)"
  reported.result: "Dose-dependent effect"
- molecule: "O=C(O)[C@H](Cc1c[nH]c2ccccc12)NC(c1cccnc1)c1nnnn1C1CCCCC1 (stereo not given in full)"
  reported.result: "Dose-dependent effect"
